Reference source: patent US6686382B2

Listing of entries alongside the reported IC50.
# tested.on: CYP2C9 (Homo sapiens)
# Sequence (P11712 whole entry): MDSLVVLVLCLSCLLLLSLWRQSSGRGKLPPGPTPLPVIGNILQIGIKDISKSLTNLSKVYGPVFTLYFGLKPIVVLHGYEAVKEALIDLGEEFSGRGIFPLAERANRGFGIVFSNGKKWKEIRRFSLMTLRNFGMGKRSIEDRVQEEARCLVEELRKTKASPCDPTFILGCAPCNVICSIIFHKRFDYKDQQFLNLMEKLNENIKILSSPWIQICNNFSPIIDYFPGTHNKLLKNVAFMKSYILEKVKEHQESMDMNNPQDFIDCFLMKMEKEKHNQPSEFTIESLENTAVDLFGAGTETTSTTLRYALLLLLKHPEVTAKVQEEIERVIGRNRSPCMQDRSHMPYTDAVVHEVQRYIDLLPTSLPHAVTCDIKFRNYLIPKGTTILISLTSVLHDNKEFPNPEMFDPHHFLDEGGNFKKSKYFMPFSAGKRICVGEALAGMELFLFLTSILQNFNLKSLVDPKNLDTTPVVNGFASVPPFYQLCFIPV
# assay.info: Cytochrome P450 enzyme assay, CYP2C9 (Gentest Supersomes, fluorometric)
# particulars: human recombinant enzyme, mean IC50; read-out: CP450 2C9 IC50
# Protocol: In vitro assays to determine the concentration of the compounds provided herein required for 50% inhibition of substrate metabolism (IC50) by different human cytochrome P450 enzymes (2C9, 2C19, 3A4) were conducted using human recombinant cytochrome P450 enzyme assays, developed by Gentest Corporation. […] The “% inhibition” was calculated as follows: [formula] Concentration versus % inhibition curves were constructed in Prism (GraphPad, Inc.). The data was analyzed using “Top & Bottom Fixed” routine. […]
The reply should contain only the number, in nM.

These solved cases illustrate the format of a correct answer.
CC(=O)c1cc(C)cc(C)c1NC(=O)c1sccc1S(=O)(=O)Nc1onc(C)c1C [Compound 7] :: 7600
Cc1cc2c(cc1CC(=O)c1sccc1S(=O)(=O)Nc1onc(C)c1Cl)OCO2 [reference compound] :: 30
Cc1cc(C)c(NC(=O)c2sccc2S(=O)(=O)Nc2onc(C)c2Cl)c(S(C)(=O)=O)c1 [Compound 42] :: 5300

Given item Cc1cc(C)c(NC(=O)c2sccc2S(=O)(=O)Nc2onc(C)c2Cl)c(Cl)c1 [Compound 34] , the value recorded as its IC50 is 560
